Exercise: state measured DC50 for each of the molecules provided.
biological target: CDK1 protein (Homo sapiens, UniProt P06493); construct: host or cells: OVCAR3; assay: CDK1 protein degradation in OVCAR3 cells (Western blot); assay type: cell-based; details: 24 h, read-out: DC50 CDK1 (half-maximum degradation concentration)
Sequence (P06493 whole entry): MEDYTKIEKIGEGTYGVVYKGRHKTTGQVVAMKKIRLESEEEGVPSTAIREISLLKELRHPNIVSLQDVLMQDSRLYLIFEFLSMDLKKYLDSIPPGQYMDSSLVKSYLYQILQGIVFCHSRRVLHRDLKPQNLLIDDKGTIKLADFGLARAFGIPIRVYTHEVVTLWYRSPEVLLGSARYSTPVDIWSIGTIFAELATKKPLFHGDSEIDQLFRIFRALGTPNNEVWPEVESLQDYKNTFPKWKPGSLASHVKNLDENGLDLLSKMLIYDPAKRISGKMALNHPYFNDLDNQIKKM

Challenge: // DC50 lookup, key: C[C@@]1(O)CCC[C@H]1n1c(=O)ccc2cnc(NC3CCN(S(=O)(=O)C4CCN(C5CC6(CCN(c7cc8c(cc7F)C(=O)N(C7CCC(=O)NC7=O)C8=O)CC6)C5)CC4)CC3)nc21 (some centres unmarked)
Response given: < 10 nM

Challenge: // query: Cc1nc2c(F)cc(-c3nc(NC4CCN(S(=O)(=O)C5CCN(CC6CCN(C7CN(c8cc9c(cc8F)C(=O)N(C8CCC(=O)NC8=O)C9=O)C7)CC6)CC5)CC4)ncc3F)cc2n1C(C)C (centres unmarked)
Response given: > 200 nM

Challenge: One more molecule: Cc1nc2c(F)cc(-c3nc(NC4CCN(S(=O)(=O)C5CCN(C6CN(C7CCN(c8cc9c(cc8F)C(=O)N(C8CCC(=O)NC8=O)C9=O)CC7)C6)CC5)CC4)ncc3F)cc2n1C(C)C (centres unmarked)
Response given: < 10 nM

Challenge: Now try Cc1nc2c(F)cc(-c3nc(NC4CCN(S(=O)(=O)C5CCN(CC6CC7(C6)CN(c6cc8c(cc6F)C(=O)N(C6CCC(=O)NC6=O)C8=O)C7)CC5)CC4)ncc3F)cc2n1C(C)C (centres unmarked) .
Response given: 11 to 50 nM

Challenge: Follow-up item: C[C@@]1(O)CCC[C@H]1n1c(=O)c(C(F)F)cc2cnc(NC3CCN(S(=O)(=O)C4CCN(CC5CCN(C6CN(c7cc8c(cc7F)C(=O)N(C7CCC(=O)NC7=O)C8=O)C6)CC5)CC4)CC3)nc21 (some centres unmarked)
Response given: < 10 nM

Challenge: Same lookup for Cc1nc2c(F)cc(-c3nc(NC4CCN(S(=O)(=O)C5CCN(C6CCN(C7CN(c8cc9c(cc8F)C(=O)N(C8CCC(=O)NC8=O)C9=O)C7)CC6)CC5)CC4)ncc3F)cc2n1C(C)C (centres unmarked) , please.
Response given: 101 to 200 nM

Challenge: Could you do the same for Cc1nc2c(F)cc(-c3nc(Nc4ccc(S(=O)(=O)C5CCN(C6CCN(C7CN(c8cc9c(cc8F)C(=O)N(C8CCC(=O)NC8=O)C9=O)C7)CC6)CC5)cc4)ncc3F)cc2n1C(C)C (centres unmarked) , please?
Response given: > 200 nM

Challenge: Can you handle C[C@@]1(O)CCC[C@H]1n1c(=O)ccc2cnc(NC3CCN(S(=O)(=O)C4CCN(CC5CCN(C6CN(c7cc8c(cc7F)C(=O)N(C7CCC(=O)NC7=O)C8=O)C6)CC5)CC4)CC3)nc21 (some centres unmarked) next?
Response given: 11 to 50 nM

###

For each of the compounds below, state its IC50.
system: OVCAR3 cells; experiment: Cell proliferation study (Cell Titer Glo, 72 h); type: cell-based; conditions: Homo sapiens, OVCAR-3, luminescence, read-out: IC50, inhibitory effect on cellular proliferation

Challenge: Report IC50 for Cc1nc2c(F)cc(-c3nc(NC4CCN(S(=O)(=O)C5CCN(CC6CC7(CCN(c8cc9c(cc8F)C(=O)N(C8CCC(=O)NC8=O)C9=O)CC7)C6)CC5)CC4)ncc3F)cc2n1C(C)C (stereo not shown) [Compound 98] please.
Response given: 101 to 1000 nM

Challenge: Note, next up: Cc1nc2c(F)cc(-c3nc(N[C@@H]4CCN(S(=O)(=O)C5CCN(CC6CCN(c7cc8c(cc7F)C(=O)N(C7CCC(=O)NC7=O)C8=O)CC6)CC5)C[C@H]4O)ncc3Cl)cc2n1C(C)C (stereo partly shown) [Compound 112]
Response given: 101 to 1000 nM

Challenge: Next compound: CC(C)N1CCOc2c(F)cc(-c3nc(Nc4ccc(C5CCN(C(=O)COCCOCCNc6cccc7c6C(=O)N(C6CCC(=O)NC6=O)C7=O)CC5)cn4)ncc3F)cc21 (stereo not shown) [Compound 5]
Response given: < 100 nM

Challenge: Repeat for the following compound: CC(C)N1CCOc2c(F)cc(-c3nc(NC4CCN(S(=O)(=O)C5CCN(CC6CCN(c7ccc8c(c7)C(=O)N(C7CCC(=O)NC7=O)C8=O)CC6)CC5)CC4)ncc3F)cc21 (stereo not shown) [Compound 19]
Response given: 101 to 1000 nM

Challenge: Note, next up: Cc1nc2c(F)cc(-c3nc(NC4CCN(S(=O)(=O)C5CCN(CCC6CCN(c7cc8c(cc7F)C(=O)N(C7CCC(=O)NC7=O)C8=O)CC6)CC5)CC4)ncc3F)cc2n1C(C)C (stereo not shown) [Compound 104]
Response given: 101 to 1000 nM

Challenge: Then this compound: Cc1nc2c(F)cc(-c3nc(Nc4ccc(S(=O)(=O)C5CCN(CC6CCN(C7CN(c8cc9c(cc8F)C(=O)N(C8CCC(=O)NC8=O)C9=O)C7)CC6)CC5)cc4)ncc3F)cc2n1C(C)C (stereo not shown) [Compound 65]
Response given: 101 to 1000 nM

Challenge: Can you check Cc1nc2c(F)cc(-c3nc(NC4CCN(S(=O)(=O)C5CCN(CC6CC7CCC(C6)N7c6cc7c(cc6F)C(=O)N(C6CCC(=O)NC6=O)C7=O)CC5)CC4)ncc3F)cc2n1C(C)C (stereo not shown) [Compound 99] next?
Response given: 101 to 1000 nM

Challenge: CC(C)N1CCOc2c(F)cc(-c3nc(Nc4ccc(C5CCN(CCCCCCCCCOc6cccc7c6C(=O)N(C6CCC(=O)NC6=O)C7=O)CC5)cn4)ncc3F)cc21 (stereo not shown) [Compound 1] ?
Response given: > 10000 nM

Challenge: Request: C[C@@]1(O)CCC[C@H]1n1c(=O)ccc2cnc(NC3CCN(S(=O)(=O)C4CCN(C5CC6(CC(NC(=O)C7CCN(c8cc9c(cc8F)C(=O)N(C8CCC(=O)NC8=O)C9=O)CC7)C6)C5)CC4)CC3)nc21 (stereo partly shown) [Compound 86]
Response given: 101 to 1000 nM

Challenge: Now this one: C[C@@]1(O)CCC[C@H]1n1c(=O)ccc2cnc(NC3CCN(S(=O)(=O)C4CCN(C(=O)C5CCC6(CC5)CCN(c5cc7c(cc5F)C(=O)N(C5CCC(=O)NC5=O)C7=O)CC6)CC4)CC3)nc21 (stereo partly shown) [Compound 78]
Response given: 101 to 1000 nM

Challenge: # repeat for C[C@@]1(O)CCC[C@H]1n1c(=O)ccc2cnc(Nc3ccc(S(=O)(=O)C4CCN(CC5CCN(c6cc7c(cc6F)C(=O)N(C6CCC(=O)NC6=O)C7=O)CC5)CC4)cc3)nc21 (stereo partly shown) [Compound 23]
Response given: > 10000 nM

Challenge: What about this compound? Cc1nc2c(F)cc(-c3nc(NC4CCN(S(=O)(=O)C5CCN(CC6CCC7(CC6)CN(c6cc8c(cc6F)C(=O)N(C6CCC(=O)NC6=O)C8=O)C7)CC5)CC4)ncc3F)cc2n1C(C)C (stereo not shown) [Compound 97]
Response given: 101 to 1000 nM

Challenge: What would you report for Cc1nc2c(F)cc(-c3nc(Nc4ccc(NS(=O)(=O)CCNC(=O)CO[C@@H]5C[C@H](C)CC[C@H]5C(C)C)cc4)ncc3F)cc2n1C(C)C (racemic) [Compound 26] ?
Response given: 1000 to 5000 nM

Challenge: Ok, now C[C@@]1(O)CCC[C@H]1n1c(=O)ccc2cnc(Nc3ccc(S(=O)(=O)C4CCN(C5CC6(CCN(c7cc8c(cc7F)C(=O)N(C7CCC(=O)NC7=O)C8=O)CC6)C5)CC4)cc3)nc21 (stereo partly shown) [Compound 22]
Response given: > 10000 nM

Challenge: What about C[C@@]1(O)CCC[C@H]1n1c(=O)ccc2cnc(Nc3ccc(S(=O)(=O)C4CCN(C5CCC6(CC5)CN(c5cc7c(cc5F)C(=O)N(C5CCC(=O)NC5=O)C7=O)C6)CC4)cc3)nc21 (stereo partly shown) [Compound 45] ?
Response given: > 10000 nM

Challenge: Repeat for the following compound: C[C@@]1(O)CCC[C@H]1n1c(=O)ccc2cnc(NC3CCN(S(=O)(=O)C4CCN(C(=O)C56CC(NCC7CCN(c8cc9c(cc8F)C(=O)N(C8CCC(=O)NC8=O)C9=O)CC7)(C5)C6)CC4)CC3)nc21 (stereo partly shown) [Compound 36]
Response given: 101 to 1000 nM

Challenge: Quick one: Cc1nc2c(F)cc(-c3nc(Nc4ccc(S(=O)(=O)NCCOCCNc5cc6c(cc5F)C(=O)N(C5CCC(=O)NC5=O)C6=O)cc4)ncc3F)cc2n1C(C)C (stereo not shown) [Compound 70]
Response given: 101 to 1000 nM

Challenge: Item: C[C@@]1(O)CCC[C@H]1n1c(=O)ccc2cnc(NC3CCN(S(=O)(=O)N4CCN(CC5CCN(c6cc7c(cc6F)C(=O)N(C6CCC(=O)NC6=O)C7=O)C5)CC4)CC3)nc21 (stereo partly shown) [Compound 61]
Response given: 101 to 1000 nM

Challenge: What do you have for Cc1nc2c(F)cc(-c3nc(NC4CCN(S(=O)(=O)C5CCN(CC6CC7(C6)CN(c6cc8c(cc6F)C(=O)N(C6CCC(=O)NC6=O)C8=O)C7)CC5)CC4)ncc3F)cc2n1C(C)C (stereo not shown) [Compound 88] ?
Response given: < 100 nM

Challenge: Also Cc1nc2c(F)cc(-c3nc(Nc4ccc(S(=O)(=O)NCCOCc5cn(CCOCCOCCNc6cccc7c6C(=O)N(C6CCC(=O)NC6=O)C7=O)nn5)cc4)ncc3F)cc2n1C(C)C (stereo not shown) [Compound 50] ?
Response given: 1000 to 5000 nM

Challenge: And then Cc1nc2c(F)cc(-c3nc(NC4CCN(S(=O)(=O)C5CCN(CC6CC7CCC(C6)N7C6CN(c7cc8c(cc7F)C(=O)N(C7CCC(=O)NC7=O)C8=O)C6)CC5)CC4)ncc3F)cc2n1C(C)C (stereo not shown) [Compound 101] , what is it?
Response given: < 100 nM

Challenge: For C[C@@]1(O)CCC[C@H]1n1c(=O)ccc2cnc(Nc3ccc(S(=O)(=O)C4CCN(CC5CCN(c6cccc7c6C(=O)N(C6CCC(=O)NC6=O)C7=O)CC5)CC4)cc3)nc21 (stereo partly shown) [Compound 44] then?
Response given: > 10000 nM

Cited source: patent US20240050577A1
